Data credit: the RNAGym collection of RNA variant scans (doi:10.1073/pnas.2313332121)

B1: TPR t1 (parent)
chain: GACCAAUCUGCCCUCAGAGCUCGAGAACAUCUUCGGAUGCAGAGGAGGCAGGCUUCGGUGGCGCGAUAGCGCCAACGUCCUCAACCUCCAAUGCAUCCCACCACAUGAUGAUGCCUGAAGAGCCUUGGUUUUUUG

variants of: B1; test: polymerase ribozyme fitness, log enrichment relative to wild type (log ratio); higher = more active; in vitro selection for triplet polymerase activity
# Lookup of reported polymerase ribozyme fitness (log ratio) keyed by entry
Write the value as a bare number.

# mutation_label, polymerase ribozyme fitness (log ratio)
rows = [
    ("A84G G93U C101A", -3.07),
    ("G42C G60C G120U", -2.03),
    ("U109G G113A", -5.72),
]

Alright, here's another variant for you.
Please list polymerase ribozyme fitness (log ratio) recorded for the variant A46G C53U -1.01
